Reference for the values: PubChem BioAssay AID256

Test system: CD2F1 mice, L1210 leukemia ip, survival T/C
Test: NCI In Vivo Anticancer Drug Screen. Data for tumor model L1210 Leukemia (intraperitoneal) in CD2F1 (CDF1) mice
Settings: endpoint: mean survival time; dose: 12.5 mg/kg/injection; schedule: Q04DX002 (ip); vehicle: saline with Tween-80; higher = longer survival
Toxic doses and inconclusive results are not listed.
property-name: T/C

Known results for molecules:
COC1SCCCS1 = 97 % of control
CCN(CC)c1cc(Cl)ccc1C = 98 % of control
[Cl][Hg][c]1ccc2ccccc2c1 = 90 % of control
CC(CN=Cc1ccccc1[NH-])N=Cc1ccccc1[NH-].[Ni+2] (stereo unspecified) = 94 % of control
CC(=O)O.CC(=O)O.[Co].[NH2-].[NH2-].[NH2-].[NH2-] = 87 % of control

Below: the item to evaluate.
For this molecule ( CC(C)(C)C1SCC(O)CS1 (stereo unspecified) ), measured T/C is 105 % of control
